study_system: UniProtKB P19156
pIC50: −log10 of the molar value.
assay_endpoint: pIC50

In the examples that follow, each entry is paired with its recorded pIC50.
# compound, observed
measured = [
    ("CC(C)=CCOc1cc(C(CO)Cc2cccc3ccccc23)ncc1C (stereo not given)", 5.52),
    ("Cc1cnc(C(CO)Cc2cccc3ccccc23)cc1OCc1ccccc1O (stereo not given)", 5.74),
]

I: COc1ccccc1COc1cc(/C(=C\c2cccc3ccccc23)CO)ncc1C
II: Cc1cnc(C(CO)Cc2cccc3ccccc23)cc1OCC1CCCCC1 (stereo not given)
III: Cc1cnc(/C(=C\c2cccc3ccccc23)CO)cc1OCc1ccccc1O
query: Arrange items by their pIC50 values in increasing order. Please, when replying, give the labels in the order that was requested.
result: II, I, III
(II: 5.51, I: 5.77, III: 6.05)
